System: HOP-62 NSCLC
Test: NCI-60 one-dose screen, 48 h (100 = growth as untreated, 0 = no growth, -100 = all killed)
Applied Conditions: 10 µM
About 83,000 compounds went through this panel and 20% of them were active in at least one assay; those are over-represented in the sample as a whole. Activity calls are given as the source filed them. The calls were made as follows: active = growth percent below 10; inactive = the rest.
Quantity Name: growth

CCN(CC)CCNC(=O)c1ccc(NC(C)=O)cc1 : 103% (inactive)
CCCCCCN1CCN(Cc2ccc(N(CC)CC)cc2)C(=O)C1=O : 33.3% (inactive)
N#Cc1ncc(Br)c(NC2CCCCCC2)n1 : 106% (inactive)

q: State its growth for this compound: O=C(Nc1cccc(-n2cc(-c3ccncc3)c(-c3ccc(O)c(Cl)c3)n2)c1)c1ccc(Cl)c(Cl)c1
a: 67.7% (inactive)

q: For the compound O=C1NC(=O)c2ncccc21 , give its measured growth value.
a: 109% (inactive)

q: Give a short answer stating reported growth for CN(C)CCN1C(=O)c2cccc3cc(N)cc(c23)C1=O .
a: 34% (inactive)

q: In one line, give reported growth of the entry Cc1ccc(C(=O)N2C/C(=C/c3ccccc3)C(=O)/C(=C/c3ccccc3)C2)cc1 .
a: 76.9% (inactive)

q: Given COc1cc(CNc2ccccc2C(=O)N2CCN(C(=O)c3cc(-c4cc(OC)c(OC)c(OC)c4)n4nc(-c5ccccc5)cc4n3)CC2)cc(OC)c1OC , respond with its growth.
a: 53.9% (inactive)

q: Given the compound NC1(C(=O)O)CSSC1 , write its reported growth.
a: 35.9% (inactive)
